# reported IC50; entries follow
molecular target: human SGLT1 (Homo sapiens, UniProt P13866); construct: Full-length human SGLT1 cDNA on pDream2.1 expression vector was obtained from GenScript Corporation; host or cells: COS-7 cells; test: Methyl-α-D-[U-14C]glucopyranoside uptake assay, human SGLT1 expressing cells; assay type: cell-based; details: COS-7 cells expressing human SGLT1, 2 h incubation, with 25% human serum (symbols in parentheses)
Sequence (P13866 whole entry): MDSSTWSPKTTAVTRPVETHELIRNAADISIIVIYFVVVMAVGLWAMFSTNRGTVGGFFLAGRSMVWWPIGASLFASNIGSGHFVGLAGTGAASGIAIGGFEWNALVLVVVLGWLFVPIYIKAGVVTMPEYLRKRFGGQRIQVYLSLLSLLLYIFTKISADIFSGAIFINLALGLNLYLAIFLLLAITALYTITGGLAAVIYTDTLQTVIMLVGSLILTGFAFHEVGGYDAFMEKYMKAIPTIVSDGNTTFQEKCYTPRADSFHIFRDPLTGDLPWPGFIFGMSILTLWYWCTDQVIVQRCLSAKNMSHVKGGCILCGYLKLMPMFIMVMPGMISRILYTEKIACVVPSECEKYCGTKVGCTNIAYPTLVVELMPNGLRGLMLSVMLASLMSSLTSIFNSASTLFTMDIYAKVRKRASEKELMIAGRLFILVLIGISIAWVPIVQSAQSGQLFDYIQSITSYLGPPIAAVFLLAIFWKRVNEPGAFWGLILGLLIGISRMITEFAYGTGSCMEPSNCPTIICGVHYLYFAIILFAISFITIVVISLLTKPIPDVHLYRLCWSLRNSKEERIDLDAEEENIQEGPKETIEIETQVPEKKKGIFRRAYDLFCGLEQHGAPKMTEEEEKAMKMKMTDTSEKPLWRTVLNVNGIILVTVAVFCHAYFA

Record excerpt, results attached:
- COMPOUND: "CCc1ccc(Cc2cc3c(cc2Cl)OC(C)C[C@]32O[C@H](CO)[C@@H](O)[C@H](O)[C@H]2O)cc1 (some centres unmarked)"
  RESULT: "> 100 µM"
- COMPOUND: "CCc1ccc(Cc2cc3c(cc2Cl)OC(C)(CO)C[C@]32O[C@H](CO)[C@@H](O)[C@H](O)[C@H]2O)cc1 (some centres unmarked)"
  RESULT: "> 100 µM"
- COMPOUND: "CCc1ccc(Cc2cc3c(cc2Cl)OC(C)(C)C[C@]32O[C@H](CO)[C@@H](O)[C@H](O)[C@H]2O)cc1"
  RESULT: "> 100 µM"

// IC50 lookup, compound = CCc1ccc(Cc2cc3c(cc2Cl)OC[C@]32O[C@H](CO)[C@@H](O)[C@H](O)[C@H]2O)cc1 , result: 10 to 100 µM

// IC50 lookup, compound = CCc1ccc(Cc2cc3c(cc2Cl)OCCC[C@]32O[C@H](CO)[C@@H](O)[C@H](O)[C@H]2O)cc1 , result: 10 to 100 µM
